# experimental-protocol: in vitro
# condition-context: human, plasma, PPB
Residues, ends and D or L forms follow the SMILES beside them.

| molecule | fraction unbound at 5 h |
| --- | --- |
| CS(=O)(=O)NC(=O)CCCc1c(-c2ccc(F)cc2)[nH]c2ccc(C#N)cc12 | 0.013 |
| c1ccc(-c2[nH]nc3ccccc23)cc1 | 0.0307 |
| O=C(c1ccc(F)cc1)C1CCN(CCn2c(=O)[nH]c3ccccc3c2=O)CC1 | 0.0968 |
| CCCCCCCC(=O)N[C@@H](CCN)C(=O)N[C@H](C(=O)N[C@@H](CCN)C(=O)N[C@H]1CCNC(=O)[C@H](C)NC(=O)[C@H](CCN)NC(=O)[C@H](CCN)NC(=O)[C@H](CC(C)C)NC(=O)[C@@H](Cc2ccccc2)NC(=O)[C@H](CCN)NC1=O)[C@@H](C)O (HELM PEPTIDE1{[CCCCCCCC(=O)[*:2]].[Dab].T.[Dab].[Dab].[Dab].[dF].L.[Dab].[Dab].A}$PEPTIDE1,PEPTIDE1,5:R3-11:R2$$$V2.0) | 0.0581 |
| C[C@H](NC(=O)c1cccc2c1N(Cc1ccc(Cl)cc1)CC2)c1ccc(C(=O)O)cc1 | 0.0133 |
| CCOc1ccc([C@@H](C)Nc2nc(N3CCN(C(C)=O)CC3)nc3c2CN(C(C)C)C3=O)cc1F | 0.334 |
| O=C(CN1CCCC1)N1c2ccccc2Sc2ccc(C(F)(F)F)cc21 | 0.0229 |
| O=C(CC1CCN(Cc2ccn(-c3ccc(C(F)(F)F)cn3)c2)CC1)NC(c1ccc(F)cc1)c1ccc(F)cc1 | 0.0053 |
| C[C@H](CO)Nc1nc(SCc2cccc(F)c2F)nc2[nH]ncc12 | 0.035 |
| COc1ccc(CCN2C(=O)N(NS(C)(=O)=O)C[C@@H]2c2ccc(OC)cc2)cc1 | 0.0477 |
| Cc1ccc(S(=O)(=O)Nc2c(C(=O)N[C@@H](C)C(C)(C)C)c(C)nn2C2CCN(C)CC2)cc1 | 0.454 |
| COc1ccc([C@]2(O)CC[C@H](N3CC[C@@H](NC(=O)CNC(=O)c4cccc(C(F)(F)F)c4)C3)CC2)cn1 | 0.212 |
| COc1ccccc1-c1csc(-n2ncc(C#N)c2N)n1 | 0.591 |
| CC1(C)CNC(=O)c2sc(N3CCOCC3)nc2C1 | 0.701 |
| COc1ccc(OC)c(CNc2[nH]nc3ccnc(Oc4ccccc4)c23)c1 | 0.0142 |
| CN(CC(=O)O)NC(=O)C[C@H](N)C[C@@H](O)CN | 0.874 |
| Cc1ccc(S(=O)(=O)Nc2c(C(=O)NC3CCOCC3)c(C)nn2-c2ccccc2)cc1 | 0.0262 |
| C[C@]12CCC(=O)C=C1C=C[C@@H]1[C@@H]2CC[C@@]2(C)[C@H]1CC[C@@]21CCC(=O)O1 | 0.0594 |
| COc1cc2ncnc(Nc3ccc(F)c(Cl)c3)c2cc1NC(=O)/C=C/CN1CCCCC1 [DACOMITINIB ANHYDROUS] | 0.0179 |
| CSc1ccc(N2C(N)=NC(N)=NC2(C)C)cc1 | 0.666 |
| COc1cc(Nc2nc(N[C@@H](C)c3ncc(F)cn3)nc(N3CCOCC3)c2F)[nH]n1 | 0.253 |
| CC[C@H]1CN(Cc2cc(Cl)ccc2OCC(=O)O)CCN1S(=O)(=O)c1ccccc1 | 0.0069 |
| COc1ccnc(CCc2nc3c(C)ccnc3[nH]2)c1 | 0.197 |
| OCCO[C@H]1C[C@@H](n2nnc3c(N[C@@H]4C[C@H]4c4ccc(F)c(F)c4)nc(SCCC(F)(F)F)nc32)[C@H](O)[C@@H]1O | 0.0015 |
